Record set: IC50 | Chymotrypsinogen A (Bos taurus, UniProt P00766) | literature, multiple sources.
The label MET is reserved for IC50 strictly under 8 µM; NOT MET covers values equal to or above it.

• O=C(CCc1ccc(Cl)cc1)N[C@@H](Cc1ccccc1)C(=O)CCl = NOT MET
• O=C(OCN1C(=O)CN(c2ccccc2)C1=O)c1ccccc1 = NOT MET
• CC1(C)C(=O)N(C(=O)NCc2ccncc2)[C@H]1Cc1ccccc1 = NOT MET
• Cc1ccc(S(=O)(=O)N2C(=O)CN(c3ccccc3)C2=O)cc1C = MET
• Cc1ccc(CCC(=O)N[C@@H](Cc2ccccc2)C(=O)CCl)cc1 = NOT MET
• CC(NC(=O)[C@H](CC(=O)N(C)C)NC(=O)[C@@H](NC(=O)CC(C)(C)C)C(C)(C)C)C(=O)c1nc2ncccc2o1 (stereo not given in full) = NOT MET
• CC(NC(=O)[C@H](CC(=O)N(C)C)NC(=O)[C@@H](NC(=O)CC(C)(C)C)C(C)(C)C)C(=O)c1nc2ccccc2o1 (stereo not given in full) = NOT MET
• COc1ccc(CCC(=O)N[C@@H](Cc2ccccc2)C(=O)CCl)cc1 = MET
